# Population Apoptotic (%) per record follows
System: Fibroblast
Assay: Multiplex assay against human fibroblast
Type: toxicity, cell-based
Settings: 24 h, 10 µM, compound concentration 10 uM, replicate 1

[
  {
    "molecule": "CC(F)(F)CN1CCOc2c(nn(-c3ccccc3Cl)c2-c2ccc(Cl)cc2)C1=O",
    "Population Apoptotic (%)": "33%"
  },
  {
    "molecule": "CN(C)C/C=C/C(=O)Nc1ccc(C(=O)N2CCCC(Nc3ncc(Cl)c(-c4c[nH]c5ccccc45)n3)C2)cc1 (centres undefined)",
    "Population Apoptotic (%)": "65%"
  },
  {
    "molecule": "CCn1c(-c2nc3cc(C(=O)N4CCCC(N)C4)ccc3n2C)cc2ccccc21.Cl (centres undefined)",
    "Population Apoptotic (%)": "70%"
  },
  {
    "molecule": "C=CCN1C[C@H](C(=O)N(CCCN(C)C)C(=O)NCC)C[C@@H]2c3cccc4[nH]cc(c34)C[C@H]21",
    "Population Apoptotic (%)": "73%"
  },
  {
    "molecule": "Cn1cc(C(=O)OCC2CCN(CCNS(C)(=O)=O)CC2)c2ccccc21",
    "Population Apoptotic (%)": "80%"
  },
  {
    "molecule": "COCCCN1CCC(NC(=O)c2cc(Cl)c(N)c3c2OCC3)CC1 [PRUCALOPRIDE]",
    "Population Apoptotic (%)": "63%"
  },
  {
    "molecule": "Cl.Cl.OCCOCCN1CCN(C(c2ccccc2)c2ccc(Cl)cc2)CC1 (centres undefined) [HYDROXYZINE HYDROCHLORIDE]",
    "Population Apoptotic (%)": "51%"
  },
  {
    "molecule": "COCCn1c(C)c(C)s/c1=N\\C(=O)C1C(C)(C)C1(C)C",
    "Population Apoptotic (%)": "68%"
  },
  {
    "molecule": "CN1CCN2c3ccccc3Cc3ccccc3C2C1.Cl (centres undefined) [MIANSERIN HYDROCHLORIDE]",
    "Population Apoptotic (%)": "61%"
  }
]
